# TEST_TARGET: human vanilloid-1 (hVR-1) in hVR-1-HEK293 cell line (Homo sapiens)
# Construct: expressed in transfected cells; host or cells: HEK293 Tet-on strain, doxycycline-induced
# ASSAY_SUMMARY: Inhibitory effect on calcium influx via a vanilloid receptor (capsaicin-stimulated, Fluo-3/AM)
# Format: cell-based
# APPLIED_CONDITIONS: hVR-1-HEK293 cells, 1 μM of capsaicin, compounds 0.015˜2000 nM; read-out: I.A. (inhibitory activity), IC50 on intracellular calcium influx
pIC50: −log10 of the molar value.
PROPERTY_MEASURED: pIC50

Use these answered entries as a reference point.
CCc1ccc(N2c3cccc(-c4nc5ccc(OC(F)(F)F)cc5[nH]4)c3OC[C@@H]2CO)nc1 [Example 82] : 7.00 to 7.70
CC(C)(C)c1ccc2[nH]c(-c3cccc4c3OCCN4c3ccc(Cl)cn3)nc2c1 [Example 14] : 7.00 to 7.70
COC[C@H]1COc2c(-c3nc4c(C)cccc4[nH]3)cccc2N1c1ccc(C)cn1 [Example 108] : 6.30 to 7.00
C=Cc1ccc(N2c3cccc(-c4nc5cc(Cl)c(Cl)cc5[nH]4)c3OC[C@@H]2CO)nc1 [Example 68] : > 7.70

Which pIC50 reading was recorded for the compound Cc1ccc(N2CCOc3c(-c4nc5c(Cl)cc(C(F)(F)F)cc5[nH]4)cccc32)nc1 [Example 29] ? 6.30 to 7.00

# get_value(readout='pIC50', item= CC(C)(C)c1ccc2[nH]c(-c3cccc4c3OCCN4c3ccc(Br)cn3)nc2c1 [Example 13] ) 7.00 to 7.70

Bench note: what pIC50 did COC[C@H]1COc2c(-c3nc4cc(Cl)c(F)cc4[nH]3)cccc2N1c1ccc(C)cn1 [Example 103] show? > 7.70

Recorded pIC50 for Cc1ccc(N2c3cccc(-c4nc5c(C)cc(Br)cc5[nH]4)c3OC[C@@H]2CO)nc1 [Example 46] , please? > 7.70

What does the record list as pIC50 for COC[C@H]1COc2c(-c3nc4c(Br)cc(C(F)(F)F)cc4[nH]3)cccc2N1c1ccc(C)cn1 [Example 93] ? > 7.70

// returns reported pIC50 for input Cc1ccc(N2c3cccc(-c4nc5ccc(F)cc5[nH]4)c3OC[C@@H]2CO)nc1 [Example 49] > 7.70

Using the record for C=Cc1ccc(N2c3cccc(-c4nc5c(C)cccc5[nH]4)c3OC[C@@H]2CO)nc1 [Example 76] , report its pIC50. 7.00 to 7.70

Using the record for COC[C@H]1COc2c(-c3nc4c(Br)cc(Br)cc4[nH]3)cccc2N1c1ccc(C)cn1 [Example 97] , report its pIC50. > 7.70

----------
# TEST_TARGET: human vanilloid-1 (hVR-1) in hVR-1-HEK293 cell line (Homo sapiens)
# ASSAY_SUMMARY: Inhibitory effect on calcium influx via a vanilloid receptor (capsaicin-stimulated, Fluo-3/AM)
# APPLIED_CONDITIONS: hVR-1-HEK293 cells, 1 μM of capsaicin, compounds 0.015˜2000 nM; read-out: I.A. (inhibitory activity), IC50 on intracellular calcium influx
pIC50: −log10 of the molar value.
PROPERTY_MEASURED: pIC50

Illustrative cases are given below, each with its answer.
COC[C@H]1COc2c(-c3nc4ccc(OC)cc4[nH]3)cccc2N1c1ccc(C)cn1 : 6.30 to 7.00
FC(F)(F)c1ccc2nc(-c3cccc4c3OCCN4c3ncccc3Cl)[nH]c2c1 : 6.30 to 7.00
CC(C)(C)c1ccc2nc(-c3cccc4c3OCCN4c3ncccc3Cl)[nH]c2c1 : 6.30 to 7.00
C=Cc1ccc(N2c3cccc(-c4nc5ccc(C)cc5[nH]4)c3OC[C@@H]2CO)nc1 : 6.30 to 7.00
COC[C@H]1COc2c(-c3nc4c(C)cc(Br)cc4[nH]3)cccc2N1c1ccc(C)cn1 : > 7.70

Given the entry `FC(F)(F)c1ccc2nc(-c3cccc4c3OCCN4c3ncc(Cl)cc3Cl)[nH]c2c1` , report its measured pIC50. 7.00 to 7.70

Which value of pIC50 has been reported for `Cc1ccc(N2c3cccc(-c4nc5c(C)c(C)ccc5[nH]4)c3OC[C@@H]2CO)nc1` in the records? > 7.70

Can you share its pIC50? I mean this molecule: `COC[C@H]1COc2c(-c3nc4ccc(OC(F)(F)F)cc4[nH]3)cccc2N1c1ccc(C)cn1` 7.00 to 7.70

----------
Let's look at some molecules and their measured pIC50.
# TEST_TARGET: human vanilloid-1 (hVR-1) in hVR-1-HEK293 cell line (Homo sapiens, UniProt Q8NER1)
# Sequence (Q8NER1 whole entry): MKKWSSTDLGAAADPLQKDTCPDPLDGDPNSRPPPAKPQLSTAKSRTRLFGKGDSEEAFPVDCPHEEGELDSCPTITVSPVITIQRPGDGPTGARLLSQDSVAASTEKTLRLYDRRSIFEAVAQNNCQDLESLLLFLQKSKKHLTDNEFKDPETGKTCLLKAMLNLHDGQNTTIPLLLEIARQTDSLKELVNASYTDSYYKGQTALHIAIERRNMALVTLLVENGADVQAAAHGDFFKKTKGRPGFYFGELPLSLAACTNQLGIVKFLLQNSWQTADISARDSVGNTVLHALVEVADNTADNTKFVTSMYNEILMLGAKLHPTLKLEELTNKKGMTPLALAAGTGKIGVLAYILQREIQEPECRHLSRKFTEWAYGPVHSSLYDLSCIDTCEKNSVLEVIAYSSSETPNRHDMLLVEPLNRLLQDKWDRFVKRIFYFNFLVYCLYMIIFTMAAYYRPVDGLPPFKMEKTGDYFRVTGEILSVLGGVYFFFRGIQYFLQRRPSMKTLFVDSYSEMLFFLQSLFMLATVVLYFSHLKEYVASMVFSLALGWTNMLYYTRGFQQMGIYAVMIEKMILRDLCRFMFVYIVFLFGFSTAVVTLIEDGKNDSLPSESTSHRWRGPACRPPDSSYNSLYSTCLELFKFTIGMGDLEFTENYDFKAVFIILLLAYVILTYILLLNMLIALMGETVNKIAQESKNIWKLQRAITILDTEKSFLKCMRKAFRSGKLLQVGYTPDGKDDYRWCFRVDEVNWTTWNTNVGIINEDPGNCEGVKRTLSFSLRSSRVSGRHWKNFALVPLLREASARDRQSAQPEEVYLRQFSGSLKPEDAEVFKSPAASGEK
# ASSAY_SUMMARY: Inhibitory effect on calcium influx via a vanilloid receptor (capsaicin-stimulated, Fluo-3/AM)
# APPLIED_CONDITIONS: hVR-1-HEK293 cells, 1 μM of capsaicin, compounds 0.015˜2000 nM; read-out: I.A. (inhibitory activity), IC50 on intracellular calcium influx
pIC50: −log10 of the molar value.

# annotated cases, reported pIC50 shown
CCc1ccc(N2c3cccc(-c4nc5cc(F)c(F)cc5[nH]4)c3OC[C@@H]2CO)nc1 : 7.00 to 7.70
Cc1ccc(N2c3cccc(-c4nc5cc(F)c(F)cc5[nH]4)c3OC[C@@H]2CO)nc1 : > 7.70
FC(F)(F)c1ccc2nc(-c3cccc4c3OCCN4c3ccc(Br)cn3)[nH]c2c1 : 7.00 to 7.70
COC[C@H]1COc2c(-c3nc4c(F)cc(F)cc4[nH]3)cccc2N1c1ccc(C)cn1 : 6.00 to 6.30
C=Cc1ccc(N2c3cccc(-c4nc5ccc(Br)cc5[nH]4)c3OC[C@@H]2CO)nc1 : > 7.70
C=Cc1ccc(N2c3cccc(-c4nc5c(C)c(C)ccc5[nH]4)c3OC[C@@H]2CO)nc1 : 7.00 to 7.70
C=Cc1ccc(N2c3cccc(-c4nc5ccc(OC(F)(F)F)cc5[nH]4)c3OC[C@@H]2CO)nc1 : > 7.70

Note: attention shifts to another entry.
Look up pIC50: `Cc1ccc(N2CCOc3c(-c4nc5cc(C(C)(C)C)ccc5[nH]4)cccc32)nc1` > 7.70

----------
# TEST_TARGET: human vanilloid-1 (hVR-1) in hVR-1-HEK293 cell line (Homo sapiens, UniProt Q8NER1)
# ASSAY_SUMMARY: Inhibitory effect on calcium influx via a vanilloid receptor (capsaicin-stimulated, Fluo-3/AM)
# APPLIED_CONDITIONS: hVR-1-HEK293 cells, 1 μM of capsaicin, compounds 0.015˜2000 nM; read-out: I.A. (inhibitory activity), IC50 on intracellular calcium influx
PROPERTY_MEASURED: IC50

C=Cc1ccc(N2c3cccc(-c4nc5ccc(F)cc5[nH]4)c3OC[C@@H]2CO)nc1 : 20 to 100 nM

Can you look up the measured IC50 of `COC[C@H]1COc2c(-c3nc4c(C(F)(F)F)cc(C(F)(F)F)cc4[nH]3)cccc2N1c1ccc(C)cn1` for me? < 20 nM

What does the record list as IC50 for `FC(F)(F)c1ccc2nc(-c3cccc4c3OCCN4c3ncccc3C(F)(F)F)[nH]c2c1` ? > 1000 nM

Which IC50 value belongs to `Cc1ccc(N2c3cccc(-c4nc5ccc(C(C)(C)C)cc5[nH]4)c3OC[C@@H]2CO)nc1` ? < 20 nM

----------
# TEST_TARGET: human vanilloid-1 (hVR-1) in hVR-1-HEK293 cell line (Homo sapiens, UniProt Q8NER1)
# ASSAY_SUMMARY: Inhibitory effect on calcium influx via a vanilloid receptor (capsaicin-stimulated, Fluo-3/AM)
# APPLIED_CONDITIONS: hVR-1-HEK293 cells, 1 μM of capsaicin, compounds 0.015˜2000 nM; read-out: I.A. (inhibitory activity), IC50 on intracellular calcium influx
# Procedure: The cell line can modulate the expression of VR-1, depending on whether doxycycline, a derivative of tetracycline, is present or not. […] The obtained data were input to the Hill equation represented by the following formula I and the values were analyzed: Intracellular calcium influx= [(fluorescent intensity of experimental group−fluorescent intensity of background)/(fluorescent intensity of positive control−fluorescent intensity of background)]*100 [Formula I] […]
PROPERTY_MEASURED: IC50

CCc1ccc(N2c3cccc(-c4nc5ccc(C#N)cc5[nH]4)c3OC[C@@H]2CO)nc1 : < 20 nM

Request - read-out IC50 | tested on human vanilloid-1 (hVR-1) in hVR-1-HEK293 cell line (Homo sapiens, UniProt Q8NER1) | molecule `Cc1ccc(N2CCOc3c(-c4nc5c(F)cc(Br)cc5[nH]4)cccc32)nc1` 20 to 100 nM

Param readout= IC50; system= human vanilloid-1 (hVR-1) in hVR-1-HEK293 cell line (Homo sapiens, UniProt Q8NER1); entry= `Cc1ccc(N2c3cccc(-c4nc5ccccc5[nH]4)c3OC[C@@H]2CO)nc1` ; returns value. < 20 nM

Missing value: IC50, human vanilloid-1 (hVR-1) in hVR-1-HEK293 cell line (Homo sapiens, UniProt Q8NER1), entry `COc1ccc2nc(-c3cccc4c3OC[C@H](CO)N4c3ccc(C)cn3)[nH]c2c1` . Fill in? 20 to 100 nM

API: value(readout=IC50, system=human vanilloid-1 (hVR-1) in hVR-1-HEK293 cell line (Homo sapiens, UniProt Q8NER1)) for record `Cc1ccc(N2c3cccc(-c4nc5ccc(Cl)cc5[nH]4)c3OC[C@@H]2CO)nc1` 20 to 100 nM

What value of IC50 on human vanilloid-1 (hVR-1) in hVR-1-HEK293 cell line (Homo sapiens, UniProt Q8NER1) does `COC[C@H]1COc2c(-c3nc4c(Br)cc(OC(F)(F)F)cc4[nH]3)cccc2N1c1ccc(C)cn1` have? < 20 nM

API: value(readout= IC50, system= human vanilloid-1 (hVR-1) in hVR-1-HEK293 cell line (Homo sapiens, UniProt Q8NER1), query= `C=Cc1ccc(N2c3cccc(-c4nc5ccccc5[nH]4)c3OC[C@@H]2CO)nc1` ) 101 to 500 nM

API: value(readout= IC50, system= human vanilloid-1 (hVR-1) in hVR-1-HEK293 cell line (Homo sapiens, UniProt Q8NER1), query= `Cc1ccc(N2c3cccc(-c4nc5c(Cl)cc(C(F)(F)F)cc5[nH]4)c3OC[C@@H]2CO)nc1` ) < 20 nM
